B1: SAT2 (parent)
chain: GYGIYYFIYSTWKGRTIYLEDIYV

# Variants of: B1
# test_description: protein stability index of a GFP-peptide fusion (GPS, HEK-293T) (PSI 1-6); higher = more stable;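 also: lentivirally expressed fusions sorted by FACS into six bins by GFP to DsRed ratio, PSI derived from sequencing read proportions per bin multiplied by bin number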
# experimental_parameters: c terminus: a fixed tail appended
Label 1 when protein stability index >= 2; otherwise -1.

Ask | Check this variant for protein stability index at or above 2: "W12S"
Reply | 1

Ask | Check this variant for protein stability index at or above 2: "L19F"
Reply | 1

Ask | Check this variant for protein stability index at or above 2: "G14T"
Reply | 1

Ask | Check this variant for protein stability index at or above 2: "I17G"
Reply | 1

Ask | Check this variant for protein stability index at or above 2: "R15T"
Reply | 1

Ask | Check this variant for protein stability index at or above 2: "I17W"
Reply | 1

Ask | Check this variant for protein stability index at or above 2: "Y23N"
Reply | 1

Ask | Check this variant for protein stability index at or above 2: "I22C"
Reply | 1

Ask | Check this variant for protein stability index at or above 2: "E20G"
Reply | 1

Ask | Check this variant for protein stability index at or above 2: "Y2P"
Reply | -1

Ask | Check this variant for protein stability index at or above 2: "D21C"
Reply | 1

Ask | Check this variant for protein stability index at or above 2: "G1E"
Reply | 1

Ask | Check this variant for protein stability index at or above 2: "I4C"
Reply | 1

Ask | Check this variant for protein stability index at or above 2: "I4N"
Reply | 1

Ask | Check this variant for protein stability index at or above 2: "E20T"
Reply | 1

Ask | Check this variant for protein stability index at or above 2: "G14H"
Reply | 1

Ask | Check this variant for protein stability index at or above 2: "G1I"
Reply | -1

Ask | Check this variant for protein stability index at or above 2: "G3D"
Reply | 1

Ask | Check this variant for protein stability index at or above 2: "K13E"
Reply | 1

Ask | Check this variant for protein stability index at or above 2: "T16N"
Reply | -1

Ask | Check this variant for protein stability index at or above 2: "G14N"
Reply | 1

Ask | Check this variant for protein stability index at or above 2: "E20M"
Reply | 1

Ask | Check this variant for protein stability index at or above 2: "I4A"
Reply | 1

Ask | Check this variant for protein stability index at or above 2: "G14R"
Reply | 1

Ask | Check this variant for protein stability index at or above 2: "G1C"
Reply | -1

Ask | Check this variant for protein stability index at or above 2: "Y18A"
Reply | -1

Ask | Check this variant for protein stability index at or above 2: "G1Y"
Reply | 1

Ask | Check this variant for protein stability index at or above 2: "I17M"
Reply | -1

Ask | Check this variant for protein stability index at or above 2: "G1M"
Reply | 1

Ask | Check this variant for protein stability index at or above 2: "I8L"
Reply | 1

Ask | Check this variant for protein stability index at or above 2: "F7E"
Reply | 1

Ask | Check this variant for protein stability index at or above 2: "G3C"
Reply | 1

Ask | Check this variant for protein stability index at or above 2: "I17P"
Reply | 1

Ask | Check this variant for protein stability index at or above 2: "F7V"
Reply | 1

Ask | Check this variant for protein stability index at or above 2: "I8T"
Reply | 1
